Target: Coagulation factor X (Oryctolagus cuniculus, UniProt O19045)
Sequence (O19045 whole entry): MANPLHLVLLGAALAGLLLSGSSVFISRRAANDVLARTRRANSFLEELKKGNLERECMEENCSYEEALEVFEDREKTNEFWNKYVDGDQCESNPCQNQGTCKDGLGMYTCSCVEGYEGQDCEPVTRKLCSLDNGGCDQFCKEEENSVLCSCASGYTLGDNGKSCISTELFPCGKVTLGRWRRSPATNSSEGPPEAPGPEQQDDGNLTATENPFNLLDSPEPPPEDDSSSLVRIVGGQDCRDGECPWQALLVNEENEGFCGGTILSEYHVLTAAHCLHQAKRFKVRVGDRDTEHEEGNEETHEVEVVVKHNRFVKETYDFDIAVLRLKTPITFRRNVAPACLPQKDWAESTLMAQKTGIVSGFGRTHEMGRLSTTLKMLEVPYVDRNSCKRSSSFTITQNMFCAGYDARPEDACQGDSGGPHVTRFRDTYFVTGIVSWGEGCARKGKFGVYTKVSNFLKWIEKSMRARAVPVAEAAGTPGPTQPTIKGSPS
pKi: −log10 of the molar value.

[
  {
    "Compound": "N=C(N)c1cccc(NCCCc2ccc(-c3ccccc3S(N)(=O)=O)cc2)c1.O=C(O)C(F)(F)F",
    "pKi": 7.08
  },
  {
    "Compound": "N=C(N)c1cccc(N(CCCc2ccc(-c3ccccc3S(N)(=O)=O)cc2)CC(=O)O)c1.O=C(O)C(F)(F)F",
    "pKi": 7.92
  },
  {
    "Compound": "N=C(N)c1cccc(N(CCO)CCCc2ccc(-c3ccccc3S(N)(=O)=O)cc2)c1.O=C(O)C(F)(F)F",
    "pKi": 7.77
  },
  {
    "Compound": "COC(=O)CC1(C(=O)Nc2ccc(-c3ccccc3S(N)(=O)=O)cc2)CC(c2cccc(C(=N)N)c2)=NO1 (configuration not stated)",
    "pKi": 8.20
  },
  {
    "Compound": "CC(=O)CN(CCCc1ccc(-c2ccccc2S(N)(=O)=O)cc1)c1cccc(C(=N)N)c1.O=C(O)C(F)(F)F",
    "pKi": 7.80
  },
  {
    "Compound": "COC(=O)CN(CCc1ccc(-c2ccccc2S(N)(=O)=O)cc1)c1cccc(C(=N)N)c1.O=C(O)C(F)(F)F",
    "pKi": 8.00
  },
  {
    "Compound": "CC(C)OC(=O)CN(c1cccc(C(=N)N)c1)S(=O)(=O)CCc1ccc(-c2ccccc2S(N)(=O)=O)cc1.O=C(O)C(F)(F)F",
    "pKi": 7.43
  }
]
